System: SF-539 CNS
Assay remarks: NCI-60 one-dose screen, 48 h
Experimental parameters: 10 µM unless noted
About 83,000 compounds went through this panel and 20% of them were active in at least one assay; those are over-represented in the sample as a whole. Calls of active or inactive are those of the source. How the source made its calls: active means growth percent below 10; inactive means the rest.
Classes used: Y for active, N for inactive

1) COc1ccc(C2c3ccc4ccccc4c3Oc3nc(C)[nH]c(=O)c32)cc1 (stereo not given) : N
2) CCCCOc1nc2ccccc2cc1C1CNC(=O)c2ccccc2N1 (stereo not given) : Y
3) O=c1[nH][n+](-c2ccc(Cl)cc2)no1 : N
4) Cc1cc(C(=O)c2ccccc2)c(C)c2c1[nH]c1ccc(Cl)cc12 : Y
5) Fc1cnc(NC2CC2)nc1-c1cnc2ccc(N3CCOCC3)cn12 : Y
6) CNC(=O)c1cc(Oc2cccc3nc(Nc4ccc(F)c(Cl)c4)ccc23)ccn1 : N
7) COCN1CCC2N(COC)CCC3N(COC)CCC1N23 (stereo not given) : N
8) N=C1C(c2nc(-c3ccc(Br)cc3)cs2)=C(O)CN1CC1CCCO1 (stereo not given) : N
9) COc1ccccc1CNCCCN1C(=O)c2ccc3c4c(ccc(c24)C1=O)C(=O)N(CCCNCCCCN)C3=O : Y
10) C=C1C(=O)O[C@H]2[C@H]1CC/C(COC(=O)C(=O)c1c[nH]c3ccccc13)=C\CC[C@@]1(C)O[C@@H]21 : Y

Values compiled from PubChem BioAssay (NCI).
